Provenance of the data: ChEMBL document CHEMBL3763106

Target: Glycogen phosphorylase, liver form (Homo sapiens)
Sequence (P06737 whole entry): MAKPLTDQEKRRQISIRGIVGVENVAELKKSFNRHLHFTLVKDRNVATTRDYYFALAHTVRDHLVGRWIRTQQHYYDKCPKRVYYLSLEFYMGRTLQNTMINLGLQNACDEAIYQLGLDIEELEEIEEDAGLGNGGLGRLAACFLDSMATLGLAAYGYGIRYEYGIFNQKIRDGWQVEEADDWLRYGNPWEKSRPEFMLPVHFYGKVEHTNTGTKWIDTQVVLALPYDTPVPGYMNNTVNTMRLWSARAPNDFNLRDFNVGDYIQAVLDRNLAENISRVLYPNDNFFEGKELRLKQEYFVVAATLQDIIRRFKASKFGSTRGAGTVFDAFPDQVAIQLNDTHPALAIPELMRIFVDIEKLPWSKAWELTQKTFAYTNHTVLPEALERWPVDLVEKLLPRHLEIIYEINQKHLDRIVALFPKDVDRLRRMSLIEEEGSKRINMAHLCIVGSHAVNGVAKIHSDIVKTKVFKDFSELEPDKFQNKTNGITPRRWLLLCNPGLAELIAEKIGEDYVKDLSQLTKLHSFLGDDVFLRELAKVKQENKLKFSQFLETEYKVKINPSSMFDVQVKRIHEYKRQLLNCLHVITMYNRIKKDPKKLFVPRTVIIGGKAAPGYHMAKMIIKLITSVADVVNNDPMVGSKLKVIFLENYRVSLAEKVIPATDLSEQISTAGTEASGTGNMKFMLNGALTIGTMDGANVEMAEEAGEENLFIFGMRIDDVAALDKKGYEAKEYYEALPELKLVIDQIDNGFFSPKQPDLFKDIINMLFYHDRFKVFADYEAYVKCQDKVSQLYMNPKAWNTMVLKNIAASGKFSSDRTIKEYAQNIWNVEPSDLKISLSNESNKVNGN
Assay: Inhibition of glycogen phosphorylase in human hepatocytes assessed as decrease in glucagon stimulated glucose release after 3 hrs by glucose oxidase method
Format: cell-based, Hepatocyte
reported-property: IC50

test-smiles: CSc1ccc(C2=NO[C@@]3(C2)O[C@H](CO)[C@@H](O)[C@H](O)[C@H]3O)cc1
assayed-target: Glycogen phosphorylase, liver form (Homo sapiens)
IC50: > 100 µM
//
test-smiles: OC[C@H]1O[C@@]2(CC(c3ccc4cc(O)ccc4c3)=NO2)[C@H](O)[C@@H](O)[C@@H]1O
assayed-target: Glycogen phosphorylase, liver form (Homo sapiens)
IC50: 22.2 µM
//
test-smiles: OC[C@H]1O[C@@]2(CC(c3ccc4c(c3)OCO4)=NO2)[C@H](O)[C@@H](O)[C@@H]1O
assayed-target: Glycogen phosphorylase, liver form (Homo sapiens)
IC50: > 100 µM
//
test-smiles: CC(=O)OC[C@H]1O[C@@]2(CC(c3ccc4ccccc4c3)=NO2)[C@H](OC(C)=O)[C@@H](OC(C)=O)[C@@H]1OC(C)=O
assayed-target: Glycogen phosphorylase, liver form (Homo sapiens)
IC50: 2.5 µM
//
test-smiles: OC[C@H]1O[C@@]2(CC(c3cc4ccccc4c4ccccc34)=NO2)[C@H](O)[C@@H](O)[C@@H]1O
assayed-target: Glycogen phosphorylase, liver form (Homo sapiens)
IC50: > 100 µM
//
test-smiles: OC[C@H]1O[C@@]2(CC(c3ccc4ccccc4c3)=NO2)[C@H](O)[C@@H](O)[C@@H]1O
assayed-target: Glycogen phosphorylase, liver form (Homo sapiens)
IC50: 20 µM
//
test-smiles: OC[C@H]1O[C@@]2(CC(c3ccc4c(c3)OCCO4)=NO2)[C@H](O)[C@@H](O)[C@@H]1O
assayed-target: Glycogen phosphorylase, liver form (Homo sapiens)
IC50: > 100 µM

Now turn to the next compound.
Q. Notebook entry, Glycogen phosphorylase, liver form (Homo sapiens) assay: IC50 of "COc1cc(OC)cc(C2=NO[C@@]3(C2)O[C@H](CO)[C@@H](O)[C@H](O)[C@H]3O)c1" = ?
A. > 100 µM
